B1: PSD2 (parent)
chain: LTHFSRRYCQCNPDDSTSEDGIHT

Variants of: B1
METHOD_DESCRIPTION: protein stability index of a GFP-peptide fusion (GPS, HEK-293T) (PSI 1-6); higher = more stable;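 note: lentivirally expressed fusions sorted by FACS into six bins by GFP to DsRed ratio, PSI derived from sequencing read proportions per bin multiplied by bin number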
CONDITION_CONTEXT: c terminus: a fixed tail appended
Use 3 as the dividing line for protein stability index, with the line itself on the Fulfilled side and lower values as Not fulfilled.

Could you verify whether the entry LTHFSRRYCQCNPDDSTSEYGIHT [D20Y] shows protein stability index of no less than 3? Not fulfilled

Could you verify whether the entry LTHFSRRYCQCNPDDSTSEDGIET [H23E] shows protein stability index of no less than 3? Fulfilled

Could you verify whether the entry LYHFSRRYCQCNPDDSTSEDGIHT [T2Y] shows protein stability index of no less than 3? Not fulfilled

Could you verify whether the entry LTHFSRRYCQCNPDDSTSSDGIHT [E19S] shows protein stability index of no less than 3? Not fulfilled

Could you verify whether the entry LTHFSRRYCQCYPDDSTSEDGIHT [N12Y] shows protein stability index of no less than 3? Not fulfilled

Could you verify whether the entry ETHFSRRYCQCNPDDSTSEDGIHT [L1E] shows protein stability index of no less than 3? Fulfilled

Could you verify whether the entry LTHFSRRYCQCHPDDSTSEDGIHT [N12H] shows protein stability index of no less than 3? Fulfilled

Could you verify whether the entry LTHFSRRACQCNPDDSTSEDGIHT [Y8A] shows protein stability index of no less than 3? Fulfilled

Could you verify whether the entry LTMFSRRYCQCNPDDSTSEDGIHT [H3M] shows protein stability index of no less than 3? Not fulfilled

Could you verify whether the entry LTHFSRRYCQCNPDDSTSEDGKHT [I22K] shows protein stability index of no less than 3? Fulfilled

Could you verify whether the entry LTHFSRRYCQCNPDDSISEDGIHT [T17I] shows protein stability index of no less than 3? Not fulfilled

Could you verify whether the entry LTHFSRRYCQKNPDDSTSEDGIHT [C11K] shows protein stability index of no less than 3? Fulfilled

Could you verify whether the entry LTHFSRRYCQANPDDSTSEDGIHT [C11A] shows protein stability index of no less than 3? Fulfilled

Could you verify whether the entry LTHFSRRYCICNPDDSTSEDGIHT [Q10I] shows protein stability index of no less than 3? Not fulfilled

Could you verify whether the entry LTHFSRRYCQCNPDDSTNEDGIHT [S18N] shows protein stability index of no less than 3? Fulfilled

Could you verify whether the entry LTHFSRRYCQCNPDDSTCEDGIHT [S18C] shows protein stability index of no less than 3? Fulfilled

Could you verify whether the entry LTHFSRRYCQCNPDDSCSEDGIHT [T17C] shows protein stability index of no less than 3? Not fulfilled

Could you verify whether the entry LTCFSRRYCQCNPDDSTSEDGIHT [H3C] shows protein stability index of no less than 3? Not fulfilled

Could you verify whether the entry LTEFSRRYCQCNPDDSTSEDGIHT [H3E] shows protein stability index of no less than 3? Fulfilled

Could you verify whether the entry LTHFSRRYCQCNPDDSTSEDGIDT [H23D] shows protein stability index of no less than 3? Fulfilled

Could you verify whether the entry LTHFSRRGCQCNPDDSTSEDGIHT [Y8G] shows protein stability index of no less than 3? Fulfilled

Could you verify whether the entry LTHFSRRYCFCNPDDSTSEDGIHT [Q10F] shows protein stability index of no less than 3? Not fulfilled

Could you verify whether the entry LTHFSRRQCQCNPDDSTSEDGIHT [Y8Q] shows protein stability index of no less than 3? Fulfilled

Could you verify whether the entry LTHFSRRYCQCNPDDSTSEDGITT [H23T] shows protein stability index of no less than 3? Not fulfilled

Could you verify whether the entry LTHFSRRYCQCNPDDSYSEDGIHT [T17Y] shows protein stability index of no less than 3? Not fulfilled

Could you verify whether the entry LTHFSRRYCQLNPDDSTSEDGIHT [C11L] shows protein stability index of no less than 3? Fulfilled

Could you verify whether the entry LTHFSRRYCNCNPDDSTSEDGIHT [Q10N] shows protein stability index of no less than 3? Not fulfilled

Could you verify whether the entry LTHFSRRYCQCNPDDSTSEDGIHW [T24W] shows protein stability index of no less than 3? Not fulfilled

Could you verify whether the entry LTHFSRRYCQCNPDDSTSEDLIHT [G21L] shows protein stability index of no less than 3? Fulfilled

Could you verify whether the entry LTRFSRRYCQCNPDDSTSEDGIHT [H3R] shows protein stability index of no less than 3? Fulfilled

Could you verify whether the entry LTHFSRRTCQCNPDDSTSEDGIHT [Y8T] shows protein stability index of no less than 3? Fulfilled

Could you verify whether the entry LTHFSRRYCQCEPDDSTSEDGIHT [N12E] shows protein stability index of no less than 3? Fulfilled

Could you verify whether the entry LTHFQRRYCQCNPDDSTSEDGIHT [S5Q] shows protein stability index of no less than 3? Fulfilled

Could you verify whether the entry LTHFSRRYCQCNPDDSTSEDGIGT [H23G] shows protein stability index of no less than 3? Fulfilled

Could you verify whether the entry LTHFSRRYCQPNPDDSTSEDGIHT [C11P] shows protein stability index of no less than 3? Fulfilled

Could you verify whether the entry LTHFSRRYCQCNPDDFTSEDGIHT [S16F] shows protein stability index of no less than 3? Not fulfilled

Could you verify whether the entry LTHFSRRYCQCNPDDSTSEDGIHK [T24K] shows protein stability index of no less than 3? Not fulfilled

Could you verify whether the entry LTHFSRRYCLCNPDDSTSEDGIHT [Q10L] shows protein stability index of no less than 3? Not fulfilled

Could you verify whether the entry LTHFSRRYCQCNIDDSTSEDGIHT [P13I] shows protein stability index of no less than 3? Not fulfilled

Could you verify whether the entry LTHFSRRYCQCNDDDSTSEDGIHT [P13D] shows protein stability index of no less than 3? Fulfilled

Could you verify whether the entry LTHFSRRYCQCNPDDSTSEDGPHT [I22P] shows protein stability index of no less than 3? Not fulfilled

Could you verify whether the entry LTYFSRRYCQCNPDDSTSEDGIHT [H3Y] shows protein stability index of no less than 3? Fulfilled

Could you verify whether the entry LTHFSRRYCQCNPDDSQSEDGIHT [T17Q] shows protein stability index of no less than 3? Fulfilled

Could you verify whether the entry LTHFSRRMCQCNPDDSTSEDGIHT [Y8M] shows protein stability index of no less than 3? Fulfilled

Could you verify whether the entry LTHFSRRYCQCNPDDSTSEDGAHT [I22A] shows protein stability index of no less than 3? Fulfilled

Could you verify whether the entry LTHFSRRYCQCNGDDSTSEDGIHT [P13G] shows protein stability index of no less than 3? Fulfilled

Could you verify whether the entry LTHFSRRYCQCNPDDSTSETGIHT [D20T] shows protein stability index of no less than 3? Not fulfilled

Could you verify whether the entry LTHFSRRYMQCNPDDSTSEDGIHT [C9M] shows protein stability index of no less than 3? Fulfilled

Could you verify whether the entry LTHFSRRYCQCNPDDSTSEDGRHT [I22R] shows protein stability index of no less than 3? Fulfilled

Could you verify whether the entry LTHFSRRYCQCNPDDSTPEDGIHT [S18P] shows protein stability index of no less than 3? Fulfilled

Could you verify whether the entry LTHNSRRYCQCNPDDSTSEDGIHT [F4N] shows protein stability index of no less than 3? Fulfilled

Could you verify whether the entry LTHFSRRFCQCNPDDSTSEDGIHT [Y8F] shows protein stability index of no less than 3? Fulfilled

Could you verify whether the entry LTHFSRRYCQCNPDDMTSEDGIHT [S16M] shows protein stability index of no less than 3? Not fulfilled

Could you verify whether the entry LTHFSRRYCQCNPDDSTHEDGIHT [S18H] shows protein stability index of no less than 3? Fulfilled

Could you verify whether the entry LTHQSRRYCQCNPDDSTSEDGIHT [F4Q] shows protein stability index of no less than 3? Fulfilled

Could you verify whether the entry LTHFSRWYCQCNPDDSTSEDGIHT [R7W] shows protein stability index of no less than 3? Not fulfilled

Could you verify whether the entry LTHFSRRYCQCNPDDSTSEDIIHT [G21I] shows protein stability index of no less than 3? Not fulfilled

Could you verify whether the entry LTHFSRRYCQCNPDDSHSEDGIHT [T17H] shows protein stability index of no less than 3? Fulfilled

Could you verify whether the entry LTHFSRVYCQCNPDDSTSEDGIHT [R7V] shows protein stability index of no less than 3? Fulfilled

Could you verify whether the entry LTHCSRRYCQCNPDDSTSEDGIHT [F4C] shows protein stability index of no less than 3? Fulfilled

Could you verify whether the entry LTHFSRRYCQCNPDDITSEDGIHT [S16I] shows protein stability index of no less than 3? Fulfilled

Could you verify whether the entry LTHFSRRYCQCNPDDSTSEDEIHT [G21E] shows protein stability index of no less than 3? Fulfilled

Could you verify whether the entry LTHFGRRYCQCNPDDSTSEDGIHT [S5G] shows protein stability index of no less than 3? Fulfilled

Could you verify whether the entry LTHFSRRYCQCNPDDSTSEDGIHH [T24H] shows protein stability index of no less than 3? Not fulfilled

Could you verify whether the entry LTKFSRRYCQCNPDDSTSEDGIHT [H3K] shows protein stability index of no less than 3? Fulfilled
